Data provenance: patent US6635670B2

Biological target: recombinant human secreted phospholipase A2 (Homo sapiens, UniProt P14555)
Sequence (P14555 21-144): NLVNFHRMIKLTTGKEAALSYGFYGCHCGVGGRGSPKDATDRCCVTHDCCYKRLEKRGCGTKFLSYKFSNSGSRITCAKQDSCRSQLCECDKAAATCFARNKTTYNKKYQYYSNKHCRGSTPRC
Test: chromogenic assay for inhibitors of recombinant human secreted phospholipase A2
Format: biochemical
Settings: diheptanoyl thio-PC substrate, pH 7.5, 40° C. for 30 minutes, absorbance at 405 nanometers; read-out: Inhibition of human secreted PLA2 IC50 ± mean deviation (3-4 tests)
pIC50: −log10 of the molar value.
endpoint.label: pIC50

>  <sample.smiles>
CCc1c(C(=O)C(N)=O)c2c(OCC(=O)NCC(=O)OC)cccc2n1Cc1ccccc1

>  <experimental.value>
6.28

$$$$
>  <sample.smiles>
CCc1c(C(=O)C(N)=O)c2c(OCC(=O)N[C@H](C(=O)OC)C(C)C)cccc2n1Cc1ccccc1

>  <experimental.value>
6.55

$$$$
>  <sample.smiles>
CCc1c(C(=O)C(N)=O)c2c(OCC(=O)NC(C(=O)OC)C(=O)OC)cccc2n1Cc1ccccc1

>  <experimental.value>
6.16

$$$$
>  <sample.smiles>
CCc1c(C(=O)C(N)=O)c2c(OCC(=O)N[C@@H](CC(=O)O)C(=O)O)cccc2n1Cc1ccccc1

>  <experimental.value>
6.88

$$$$
